Target System: rat B1R (bradykinin receptor 1) (Rattus norvegicus)
Construct: expressed in transfected cells; host or cells: CHO K1 cells
Assay Comment: FLIPR Ca2+ assay (Fluo-4) on CHO K1 cells stably transfected with the B1R gene of the rat (rB1R cells): % inhibition at 10 μM / IC50, agonist Des-Arg9-bradykinin
Type: cell-based
Condition Summary: CHO-K1, rat B1R
Parameter: inhibition at 10 µM
Don't forget the unit after the number, please.

Give the measured inhibition at 10 µM of "COc1ccc(S(=O)(=O)N[C@@H]2CCc3ccc(C(=O)N4CCC5(CCN(c6ccncc6)CC5)C4)cc32)c(C)c1" .
104%

Again, but for CN(C(=O)c1ccccc1Cl)C1CCc2ccc(C(=O)N3CCC4(CC3)CCN(c3cccnc3)CC4)cc21 (stereo not shown)
100%

Again, but for O=C(c1ccc2c(c1)C(N(C(=O)c1ccccc1Cl)C1CC1)CC2)N1CCC2(CCN(C(=O)c3ccc(F)cc3Cl)CC2)C1 (stereo not shown)
66%

Again, but for O=C(NC1CCc2ccc(C(=O)N3CCC4(CCN(CCc5ccccc5)CC4)CC3)cc21)c1cccc(Cl)c1Cl (stereo not shown)
86%

Again, but for "O=C(N[C@@H]1CCc2ccc(C(=O)N3CCC4(CCC(C(=O)N[C@H]5CN6CCC5CC6)CC4)CC3)cc21)c1ccccc1Cl"
46%

# batch: return inhibition at 10 µM for each of the 2 compounds below
1. CC1(C)CC(NC(=O)NCc2ccccc2Cl)c2cc(C(=O)N3CCC4(CC3)CCN(c3ccncc3)CC4)ccc21 (stereo not shown)
2. O=C(NC1CCc2ccc(C(=O)N3CCC4(CCN(Cc5ccc6ncccc6c5)CC4)C3)cc21)c1ccccc1Cl (stereo not shown)

1. 103%
2. 100%

====

Target System: rat B1R (bradykinin receptor 1) (Rattus norvegicus, UniProt P97583)
Construct: expressed in transfected cells; host or cells: CHO K1 cells
Sequence (P97583 1-337): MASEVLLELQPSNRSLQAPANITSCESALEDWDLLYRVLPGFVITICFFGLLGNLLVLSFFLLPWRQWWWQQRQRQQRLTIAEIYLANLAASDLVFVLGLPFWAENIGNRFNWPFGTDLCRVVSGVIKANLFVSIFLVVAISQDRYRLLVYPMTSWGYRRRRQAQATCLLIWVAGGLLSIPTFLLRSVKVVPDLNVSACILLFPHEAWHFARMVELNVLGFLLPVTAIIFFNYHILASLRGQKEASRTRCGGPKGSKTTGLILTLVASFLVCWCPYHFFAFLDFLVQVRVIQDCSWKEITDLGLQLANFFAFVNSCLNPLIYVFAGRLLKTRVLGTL
Assay Comment: FLIPR Ca2+ assay (Fluo-4) on CHO K1 cells stably transfected with the B1R gene of the rat (rB1R cells): % inhibition at 10 μM / IC50, agonist Des-Arg9-bradykinin
Assay type: cell-based
Condition Summary: CHO-K1, rat B1R
If the reported inhibition at 10 µM equals or exceeds 90%, assign met. If not, assign not met.

Examples from the recorded data:
Is reported inhibition at 10 µM greater than or equal to 90% here: O=C(NC1CCc2ccc(C(=O)N3CCC4(CCN(c5ccncc5)CC4)C3)cc21)c1c(F)cccc1C(F)(F)F (centres unmarked) [IND_CC-378]
met

Again, but for CN(C1CCc2ccc(C(=O)N3CCC4(CC3)CCN(c3ccncc3)CC4)cc21)S(=O)(=O)c1c(Cl)cccc1Cl (centres unmarked) [IND_CC-321]
met

Again, but for CC(C)(C(=O)N[C@@H]1CCc2ccc(C(=O)N3CCC4(CCN(c5ccncc5)CC4)C3)cc21)c1ccccc1Cl [Example H-146]
met

Again, but for CN(C1CCc2ccc(C(=O)N3CCC4(CC3)CCN(c3ccncc3)CC4)cc21)S(=O)(=O)c1cc(Cl)c(Cl)cc1Cl (centres unmarked) [IND_CC-362]
not met

Again, but for O=C(c1ccc2c(c1)C(N(C(=O)c1ccccc1Cl)C1CC1)CC2)N1CCC2(CCN(C(=O)c3ccc(F)cc3F)CC2)C1 (centres unmarked) [IND_CC-606]
not met

Again, but for O=C(c1ccc2c(c1)C(NS(=O)(=O)c1c(Cl)cccc1Cl)CC2)N1CCC2(CC1)CCN(c1ccncc1)CC2 (centres unmarked) [IND_CC-322]
met

Again, but for CN(C(=O)c1cc(Cl)ccc1C(F)(F)F)C1CCc2ccc(C(=O)N3CCC4(CC3)CCN(c3ccncc3)CC4)cc21 (centres unmarked) [IND_CC-301]
met

Again, but for O=C(c1ccc2c(c1)C(NS(=O)(=O)Cc1cccc(Cl)c1)CC2)N1CCC2(CC1)CCN(c1ccncc1)C2 (centres unmarked) [IND_CC-353]
met

***
Is reported inhibition at 10 µM greater than or equal to 90% here: O=C(NC1CCc2ccc(C(=O)N3CCC4(CCN(Cc5ccc(F)c(F)c5)CC4)C3)cc21)c1cc(Cl)ccc1F (centres unmarked) [IND_CC-621]
not met

====

Target System: rat B1R (bradykinin receptor 1) (Rattus norvegicus)
Construct: expressed in transfected cells; host or cells: CHO K1 cells
Assay Comment: FLIPR Ca2+ assay (Fluo-4) on CHO K1 cells stably transfected with the B1R gene of the rat (rB1R cells): % inhibition at 10 μM / IC50, agonist Des-Arg9-bradykinin
Format: cell-based
Condition Summary: CHO-K1, rat B1R
So I've got a bunch of compounds here, and I need their inhibition at 10 µM values.
One number for each entry, in %.

Give the measured inhibition at 10 µM of CN(C1CCc2ccc(C(=O)N3CCC4(CC3)CCN(c3ccncc3)CC4)cc21)S(=O)(=O)c1ccc(C(F)(F)F)cc1Cl (stereo not shown) .
83

Again, but for Cc1cc(F)cc(C)c1S(=O)(=O)NC1CCc2ccc(C(=O)N3CCC4(CC3)CCN(c3ccncc3)C4)cc21 (stereo not shown)
69

Again, but for O=C(c1ccc2c(c1)C(N1Cc3cccc(Cl)c3C1=O)CC2)N1CCC2(CC1)CCN(c1ccncc1)CC2 (stereo not shown)
97

# context switch: different compound, same inhibition at 10 µM
Give the measured inhibition at 10 µM of CN(C(=O)c1ccccc1C(F)(F)F)C1CCc2ccc(C(=O)N3CCC4(CC3)CCN(c3ccncc3)CC4)cc21 (stereo not shown) .
101

====

Target System: rat B1R (bradykinin receptor 1) (Rattus norvegicus)
Construct: expressed in transfected cells; host or cells: CHO K1 cells
Assay Comment: FLIPR Ca2+ assay (Fluo-4) on CHO K1 cells stably transfected with the B1R gene of the rat (rB1R cells): % inhibition at 10 μM / IC50, agonist Des-Arg9-bradykinin
Assay type: cell-based
Condition Summary: rat B1R, 10 µM
So I've got a bunch of compounds here, and I need their % Inhibition (rat B1R) at 10 μM values.
Give bare numbers, in %.

# batch: return % Inhibition (rat B1R) at 10 μM for each of the 5 compounds below
1. CN(C(=O)c1ccccc1Cl)C1CCc2ccc(C(=O)N3CCC4(CC3)CCN(c3ccncc3)CC4)cc21 (centres unmarked)
2. O=C(NC1CCc2ccc(C(=O)N3CCC4(CC3)CCN(c3ccncc3)CC4)cc21)c1ccccc1Cl (centres unmarked) [Example H-02]
3. O=C(NC1CCc2ccc(C(=O)N3CCC4(CC3)CCN(c3ccncc3)C4)cc21)c1ccccc1Cl (centres unmarked)
4. O=C(NC1CCc2ccc(C(=O)N3CCC4(CCN(Cc5ccncc5)CC4)CC3)cc21)c1ccccc1Cl (centres unmarked)
5. O=C(NC1CCc2ccc(C(=O)N3CCC4(CC3)CCN(c3ccncc3)CC4)cc21)c1ccccc1Cl (centres unmarked) [Ind_CC-095]

107
100
106
95
99

====

Target System: human B1R (bradykinin receptor 1) (Homo sapiens, UniProt P46663)
Construct: expressed in transfected cells; host or cells: CHO K1 cells
Sequence (P46663 1-353): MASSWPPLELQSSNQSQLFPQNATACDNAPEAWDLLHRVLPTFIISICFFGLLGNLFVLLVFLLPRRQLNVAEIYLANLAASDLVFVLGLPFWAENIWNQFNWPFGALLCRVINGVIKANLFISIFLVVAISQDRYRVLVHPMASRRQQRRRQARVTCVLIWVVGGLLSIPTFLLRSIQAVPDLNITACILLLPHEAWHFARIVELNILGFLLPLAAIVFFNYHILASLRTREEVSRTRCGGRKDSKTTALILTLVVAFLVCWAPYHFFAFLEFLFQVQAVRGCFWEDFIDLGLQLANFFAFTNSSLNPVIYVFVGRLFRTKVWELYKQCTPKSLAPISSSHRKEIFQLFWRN
Assay Comment: FLIPR Ca2+ assay (Fluo-4) on CHO K1 cells stably transfected with the human B1R gene (hB1R cells): % inhibition at 10 μM / IC50, agonist Lys-Des-Arg9-bradykinin
Type: cell-based
Condition Summary: CHO-K1, human B1R
Parameter: inhibition at 10 µM (%)
One number for each entry, in %.

Consider the worked cases shown below.
Give the measured inhibition at 10 µM of O=C(Cc1ccccc1Cl)N[C@@H]1CCc2ccc(C(=O)N3CCC4(CCN(c5ccncc5)CC4)C3)cc21 [Example H-151] .
99

Again, but for CC1(C)Cc2ccc(C(=O)N3CCC4(CCN(c5ccncc5)CC4)C3)cc2C1NC(=O)c1ccccc1Cl (stereo not shown) [Example H-47]
99

Again, but for CC1(C)Cc2ccc(C(=O)N3CCC4(CC3)CCN(c3ccncc3)CC4)cc2C1NS(=O)(=O)CCc1ccccc1Cl (stereo not shown) [IND_CC-242]
94

Again, but for COc1ccc(C(=O)NC2CCc3ccc(C(=O)N4CCC5(CC4)CCN(c4ccncc4)C5)cc32)c(Cl)c1 (stereo not shown) [IND_CC-212]
58

Again, but for COc1ccc2cc(C(=O)N[C@@H]3CCc4ccc(C(=O)N5CCC6(CCN(c7ccncc7)CC6)C5)cc43)ccc2c1 [Example H-56]
94

Again, but for O=C(N[C@@H]1CCc2ccc(C(=O)N3CCC4(CCN(c5ccncc5)CC4)C3)cc21)c1c(Cl)cccc1Cl [Example H-99]
100

***
Give the measured inhibition at 10 µM of COc1cc(C)c(C(=O)NC2CCc3ccc(C(=O)N4CCC5(CC4)CCN(c4ccncc4)C5)cc32)c(C)c1 (stereo not shown) [Ind_CC-094] .
42

Data credit: patent US8455475B2
